system: Mycobacterium tuberculosis; assay: Cornell - Phenotypic assay to identify agents that inhibit growth of Mycobacterium tuberculosis; format: functional; parameters: scale not given: direction of the effect not stated beside the values; conditions: 10 mM as filed; unlikely as a test dose
Hit rate of the full screen: of about 53,000 compounds, about 900 (1.7%) showed an effect of 50% or more. The list comes from a sample in which strong results are over-represented; it also holds close analogues and randomly drawn compounds.
Rule for this label: Satisfied means Percent Effect is less than 30%; Not satisfied means Percent Effect is at least 30%.

Please indicate whether the reported Percent Effect of CC(=O)N1C[C@@H]2CN(S(=O)(=O)C3CC3)CCO[C@@H]2C1 is strictly below 30%.
Satisfied

Is 30% strictly greater than the compound's reported Percent Effect? compound: CC(C)c1noc(C[S+]([O-])CC(=O)Nc2cc(F)ccc2F)n1 (configuration not stated)
Not satisfied

Threshold test, Percent Effect < 30%: CN1CC(=O)N(c2cccc(F)c2)CC12CCNC2 (configuration not stated)
Satisfied

Is the reported Percent Effect for CC(C)c1noc(CN2CCN(C(=O)c3cc(Cl)ccc3F)CC2)n1 strictly below 30%?
Not satisfied

Strictly below 30%: is that where Percent Effect of CC(C)c1noc(CCC(=O)Nc2cc(F)ccc2F)n1 sits?
Satisfied

A record lists CC(C)(C)NC(=O)CNC(=O)Nc1cc(-c2ccccc2)ns1 . Is its Percent Effect below 30%?
Not satisfied

Does the reported Percent Effect of the following compound sit strictly below 30%? COc1ccccc1C1(CNc2nnc(C)c(C)c2C#N)CCOCC1
Satisfied

For CC(C)c1noc(CCCC(=O)Nc2cccc(F)c2)n1 , is the recorded Percent Effect below the cut-off of 30%?
Satisfied

Is it true that Percent Effect reported for Cc1cc(C2CCCCN2C(=O)c2ccsc2)nc2nccn12 (configuration not stated) is less than 30%?
Satisfied

Given Cc1nnc(NCC2(c3ccccc3)CCC2)c(C#N)c1C , is recorded Percent Effect strictly lower than 30%?
Not satisfied

Hello, is Percent Effect of the following compound strictly smaller than 30%? Cc1nnc(CN2CCCC2c2ccsc2)o1 (configuration not stated)
Satisfied

Input CCCc1noc(CN2CCCC2c2ccsc2)n1 (configuration not stated) ; condition: Percent Effect strictly below 30%. Does it hold?
Not satisfied

----------
So I've got a bunch of compounds here, and I need their Percent Effect values.
system: Mycobacterium tuberculosis; assay: Cornell - Phenotypic assay to identify agents that inhibit growth of Mycobacterium tuberculosis; format: functional; design: scale not given: direction of the effect not stated beside the values; details: 10 mM as filed; unlikely as a test dose
Screen size: about 53,000 compounds; about 900 (1.7%) showed an effect of 50% or more. Shown is part of a subset that was picked to be rich in strong results.
Kindly answer with a numeric value in %, unit omitted.

I am curious: what Percent Effect value has been reported for O=C(c1nnn(-c2ccc(C(F)(F)F)cc2)n1)N1CCC(O)CC1 ?
42.24

Which measured Percent Effect value corresponds to Cc1cncc(C2CCN(Cc3ccncc3)CC2)n1 ?
18.56

Which Percent Effect reading was recorded for the compound Cl.O=C(CN1CCCC1)Nc1c2c(cc3c1CCC3)CCC2 ?
40.53

Reported Percent Effect, compound Cn1ccc2c(-c3cc(N4CCCCC4)ncn3)ccnc21 : ____
-7.071

Data request, read-out Percent Effect, for CCOc1nnc(CN(C)C2CCCN(c3cccnn3)C2)s1 (stereo not drawn)
26.02

So what's the measured Percent Effect for this one? Cl.Nc1cccnc1N1CCCCCC1
72.92

Report Percent Effect for O=C(NCCN1CCc2ccccc21)c1cc(-c2ccc(O)cc2)n[nH]1 please.
53.46

Fill in: Percent Effect of CN(C)CC1(O)CCN(C(=O)Cc2ccc3c(c2)CCCC3)C1 (stereo not drawn) is ___
27.93

What value of Percent Effect has been reported for the following compound? Cc1ccc(-c2nnc(CCC(=O)N3CCCC3c3ccc[nH]3)o2)cc1 (stereo not drawn)
45.95

What does the record list as Percent Effect for CN1CCN(c2ncccc2N)CC1 ?
-43.88

Would you mind telling me what Percent Effect value was observed for CCc1noc(CN(CCC2CCCCC2)CC(N)=O)n1 ?
4.193

Any idea what its Percent Effect is? The compound is Cc1cc(C(=O)NCCN2CCCc3ccccc32)[nH]n1
-6.129

I'd like to know its Percent Effect. The compound in question is COc1cc(-c2cc(N)ncn2)cc(OC)c1OC
14.69

// Percent Effect lookup, key: COc1ccc(CNC(=O)NC(C)(C(=O)O)c2ccco2)cc1F (stereo not drawn)
-25.47

So what does the record say about Percent Effect for Cc1cncc(C2CCN(Cc3ccsc3)CC2)n1 ?
41.74

Quick one: Percent Effect of COc1ccc([C@@H]2CN(Cc3ccncc3)C[C@H]2c2cc[nH]n2)cc1.O=C(O)CC(O)(CC(=O)O)C(=O)O ?
34.94

Entry O=C(c1nnn(-c2ccc(C(F)(F)F)cc2)n1)N1CC(O)C1 : reported Percent Effect = ?
30.38

Item under review: O=C(O)CC(O)(CC(=O)O)C(=O)O.c1ccc([C@@H]2CN(Cc3cccnc3)C[C@H]2c2cc[nH]n2)cc1 . Reported Percent Effect?
51.47

Dear colleague, I am looking for the recorded Percent Effect of the following compound: COc1ccc2nnc(C(=O)NC3CCCC3)nc2c1
60.2

I am curious: what Percent Effect value has been reported for NC(=O)c1ccc(OCC(=O)N2CCCC2c2ccc[nH]2)cc1 (stereo not drawn) ?
-7.16

Fill blank: measured Percent Effect of the compound CN(C)CC1(O)CCN(C(=O)Cc2ccc3c(c2)CCC3)C1 (stereo not drawn) is ____.
59.81

State the recorded Percent Effect for this entry: O=C(O)CC(O)(CC(=O)O)C(=O)O.c1ccc([C@@H]2CN(Cc3ccncc3)C[C@H]2c2cc[nH]n2)cc1
17.96

Can you look up the measured Percent Effect of O=C(NCCN1CCNC1=O)c1cc(-c2ccc(O)cc2)n[nH]1 for me?
15.58

Where these numbers come from: ChEMBL document CHEMBL3988442
